Origin of the recorded values: the Human Domainome abundance scans (Beltran et al. 2025)

B1: POU domain, class 3, transcription factor 3, residues 408 to 463; numbered along this chain, P20264 (parent)
chain: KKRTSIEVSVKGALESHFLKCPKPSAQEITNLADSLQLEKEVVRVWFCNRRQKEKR

Variants of: B1
Assay: abundance fitness (aPCA) (normalised: wild type 0, dead -1); higher = more abundant; growth selection in yeast, the domain comes from the species named
Details: Homo sapiens
Quick list: abundance fitness per entry.
Just the number, please.

{"columns": ["changes", "assay_value"],
 "data": [
  ["L36W", -0.565],
  ["E28V", -0.442],
  ["K2Q", -0.255],
  ["E39S", -0.055],
  ["S25V", -0.45],
  ["Q37A", 0.013],
  ["K1I", -0.181],
  ["V45S", 0.032],
  ["E28I", -0.223],
  ["S25P", -0.373]
]}

Recorded abundance fitness of `K55S` , please.
-0.011

`R3L` ?
0.055

`V10K` ?
-0.032

`N49A` ?
-0.142

`K40L` ?
-0.103

`L36D` ?
-1.02

`T4S` ?
-0.077

`A13E` ?
-0.081

`A33S` ?
-0.052

`K20V` ?
-0.127

`E54F` ?
-0.598

`L19D` ?
-0.191

`Q52E` ?
0.057

`E7W` ?
-0.436
